Reference source for all entries: ChEMBL document CHEMBL1129441

Provide the recorded Ratio for the entries that follow.
- experimental.protocol: Relative binding to rat A2A and human A3 adenosine receptors (ratio of IC50)

As a guide, the following entries are already answered.
CCCCC(=O)Nc1nc2ccc(Cl)cc2c2nc(-c3ccco3)nn12: 2.3
CCCC(=O)Nc1nc2ccc(Cl)cc2c2nc(-c3ccco3)nn12: 2.6
CCCn1c(=O)n2nc(-c3ccco3)nc2c2cc(Cl)ccc21: 3.8
Oc1nc2ccc(Cl)cc2c2nc(-c3ccco3)nn12: 17
O=C(Nc1nc2ccc(Cl)cc2c2nc(-c3ccco3)nn12)c1cccc(I)c1: 13
CC(C)(C)C(=O)Nc1nc2ccc(Cl)cc2c2nc(-c3ccco3)nn12: 0.36

Can you give me Ratio for all of these, one by one?
1. CC(C)(C)OC(=O)NCCCC(=O)Nc1nc2ccc(Cl)cc2c2nc(-c3ccco3)nn12
2. O=C(Nc1nc2ccc(Cl)cc2c2nc(-c3ccco3)nn12)c1ccccc1
3. CCC(=O)Nc1nc2ccc(Cl)cc2c2nc(-c3ccco3)nn12
4. NCCCC(=O)Nc1nc2ccc(Cl)cc2c2nc(-c3ccco3)nn12

Reply |
1. 4.1
2. 90
3. 14
4. 0.18

* * *

Provide the recorded pKi for the entries that follow.
- target.desc: Adenosine receptor A1 (Rattus norvegicus, UniProt P25099)
- Sequence (P25099 whole entry): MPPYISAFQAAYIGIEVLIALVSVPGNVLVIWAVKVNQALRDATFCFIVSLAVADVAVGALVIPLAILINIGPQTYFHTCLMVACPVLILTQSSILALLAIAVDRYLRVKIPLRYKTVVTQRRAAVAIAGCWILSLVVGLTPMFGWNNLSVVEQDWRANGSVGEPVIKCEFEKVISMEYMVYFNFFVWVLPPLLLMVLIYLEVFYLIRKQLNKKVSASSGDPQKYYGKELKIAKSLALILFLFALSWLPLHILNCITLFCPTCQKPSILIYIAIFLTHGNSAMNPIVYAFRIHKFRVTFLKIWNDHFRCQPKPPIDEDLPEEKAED
- experimental.protocol: Displacement of [3H]-(R)-PIA from Adenosine A1 receptor of rat cerebral cortex membranes
- Type: cell membranes, Membrane
Give bare numbers, as −log10 of the molar value.

As a guide, the following entries are already answered.
Oc1nc2ccc(Cl)cc2c2nc(-c3ccco3)nn12: 5.40
CCCn1c(=O)n2nc(-c3ccco3)nc2c2cc(Cl)ccc21: 5.73
O=C(Nc1nc2ccc(Cl)cc2c2nc(-c3ccco3)nn12)c1cccc(I)c1: 6.70

Consider the record given below.
Ask | Please give the measured pKi for this compound: O=C(Nc1nc2ccc(Cl)cc2c2nc(-c3ccco3)nn12)c1ccccc1
Reply | 6.17
